- Target Under Test: T1, human TIGIT protein (human, UniProt Q495A1 22-141, limits assumed)
- T1 construct: Recombinant protein (Genentech) used in ELISA screening and as SPR analyte; also called TIGIT antigen
- T1 sequence: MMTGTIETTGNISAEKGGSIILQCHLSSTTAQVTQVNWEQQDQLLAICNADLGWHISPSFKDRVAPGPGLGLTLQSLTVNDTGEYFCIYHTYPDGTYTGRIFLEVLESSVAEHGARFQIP
- Assay Explanation: SPR, captured mAb
// reported koff per item
Report the figure in s⁻¹ without appending any unit label.

Known koff results, listed for orientation:
Binder | koff [s⁻¹]
h10A5.L4H4 (antibody, V domains shown, Fully humanized version; FR/HVR pieces in order) VH: EVTLKESGPALVKPTQTLTLTCTFSGFSLTTYGMGVSWIRQPPGKALEWLASIWWNGNTYYNPSLRSRLTITKDTSKNQVVLTMTNMDPVDTATYYCAHTGGAVITWFAYWGQGTLVTVSS VL: EIVMTQSPATLSVSPGERATLSCKASQSVGKNIAWYQQKPGQAPRLLIYYASNRYTGIPARFSGSGSGTEFTLTISSLQSEDFAVYYCQHIYNSPYPFGQGTKVEIK | 0.00227
rat7E7 (antibody, V domains shown, SD rat-derived; rat V domains as FR/HVR pieces; also called 1.7E7; Chimeric 1.7E7) VH: EVQLQQSGPELQRPGASVKLSCKATGYTFTEYSIYWVKQRPKQSLEIIGRIDPKNGRTYYVDKFKNRATLTADTSSNTAYMQLSSLTSEDTATYFCTRIYGFYFDFWGQGVMVTASS VL: NIHLTQSPSLLSASVGDRVTLSCKGSQNVNKYLVWYQQKLGEAPKLLIYNTDNLQSGIPSRFSGSGSGTDYTLTISSLQPEDAATYFCYQYNNGFTFGSGTKLEIK | 1.8e-05
rat6B2 (antibody, V domains shown, SD rat-derived; rat V domains as FR/HVR pieces; also called 1.6B2; Chimeric 1.6B2) VH: QVSLKESGPGILQPSHTLSLTCSFSGFSLSTYGMGVSWIRQPSEKGLEWLASIWWNGNTYYNPSLKSRLTVSKDASNDQAFLNVTSVDTTDTATYYCAHTGGAVITWFAYWGQGTLVTVSS VL: NIVMTQSPKSMSISVGDRVTMNCKASQSVGKNIAWYQQKPGQSPKLLIYYASNRYTGVPDRFTGGGSGTDFTLTINTVQAEDAAFFYCQHIYNSPYPFGTGTKLEIK | 3.5e-05
h15C8.L5H1 (antibody, V domains shown, VL: I58V, Y71F, F87Y against h15C8.L1H1; FR/HVR pieces) VH: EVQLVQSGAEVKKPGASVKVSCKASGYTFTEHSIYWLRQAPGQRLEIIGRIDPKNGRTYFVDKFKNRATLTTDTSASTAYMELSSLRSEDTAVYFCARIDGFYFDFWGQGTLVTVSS VL: DIQLTQSPSFLSASVGDRVTITCKGSQNVNKYLVWYQQKPGKAPKLLIYSTDNLQSGVPSRFSGSGSGTEFTLTISSLQPEDFATYYCYQYNNGFTFGQGTKVEIK | 0.000562

Shift focus to the following entry.
Entry h7E7.L2H1 (antibody, V domains shown, VL: I58V against h7E7.L1H1; FR/HVR pieces) VH: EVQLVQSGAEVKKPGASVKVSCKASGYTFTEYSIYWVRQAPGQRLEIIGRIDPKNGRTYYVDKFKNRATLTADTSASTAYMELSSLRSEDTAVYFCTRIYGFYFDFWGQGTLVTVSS VL: DIQLTQSPSFLSASVGDRVTITCKGSQNVNKYLVWYQQKPGKAPKLLIYNTDNLQSGVPSRFSGSGSGTEYTLTISSLQPEDFATYFCYQYNNGFTFGQGTKVEIK — recorded koff = 0.000504
